target-entity: T1, CRBN, Q96SW2;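 note: pooled lentiviral library of zinc finger degron-EGFP fusions in mCherry-positive Jurkat cells, FACS-sorted after compound exposure, with degron abundance counted by next-generation sequencing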
T1 chain: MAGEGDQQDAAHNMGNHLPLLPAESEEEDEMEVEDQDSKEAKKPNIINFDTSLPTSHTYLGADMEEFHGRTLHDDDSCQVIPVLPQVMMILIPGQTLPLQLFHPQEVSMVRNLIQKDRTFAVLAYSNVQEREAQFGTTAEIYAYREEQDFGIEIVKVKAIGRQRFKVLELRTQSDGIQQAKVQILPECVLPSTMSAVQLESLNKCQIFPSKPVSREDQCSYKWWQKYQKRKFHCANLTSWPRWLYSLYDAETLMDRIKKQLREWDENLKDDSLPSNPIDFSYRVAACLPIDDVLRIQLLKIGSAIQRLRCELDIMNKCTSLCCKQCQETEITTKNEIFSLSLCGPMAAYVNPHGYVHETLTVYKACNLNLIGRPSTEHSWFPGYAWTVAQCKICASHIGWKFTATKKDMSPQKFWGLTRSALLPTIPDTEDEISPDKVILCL
protocol-text: log2 fold change of degron read counts, EGFP-low vs EGFP+ sorted cells (limma voom), compound-induced degradation; higher = more compound-induced degradation of the degron-EGFP fusion; degrons are variants of IKZF1/3 zinc finger 2; compound dose not given here
stated-conditions: Jurkat; 18 h; compound: compound 19 (5-tert-butyl-thalidomide)
Whole data set: some 8,300 sequences, median “log2 fold change of degron read counts, EGFP-low vs EGFP+ sorted cells (limma voom), compound-induced degradation” near -1.1, cut for the highest 2% near 3.2. Only a selection was taken, and the highest values are over-represented in it overall.
readout: log2 fold change of degron read counts
One number for each entry.

Consider the following illustrative entries.
sequence-content	experimental-value
FDCNVCGAKFTQKGNLLRHIKL [46F_47D_49N_50V_52G_53A_54K_55F_67L_, Q9UKT9]	-1.36
FWCNICGAFFTQKGNLLRHIKL [46F_47W_49N_50I_52G_53A_54F_55F_67L_, Q9UKT9]	1.6
FFCEICGHVFTQKGNLLRHIKL [46F_47F_49E_50I_52G_53H_54V_55F_67L_, Q9UKT9]	-1.37
FYCPVCGATFTQKGNLLRHIKL [46F_47Y_49P_50V_52G_53A_54T_55F_67L_, Q9UKT9]	2.81

Batch of 7 sequences: report log2 fold change of degron read counts for each.
1. FRCPICGHEFTQKGNLLRHIKL [46F_47R_49P_50I_52G_53H_54E_55F_67L_, Q9UKT9]
2. FFCNQCGAAFTQKGNLLRHIKL [46F_47F_49N_50Q_52G_53A_54A_55F_67L_, Q9UKT9]
3. FFCEICGAPFTQKGNLLRHIKL [46F_47F_49E_50I_52G_53A_54P_55F_67L_, Q9UKT9]
4. FVCEICGADFTQKGNLLRHIKL [46F_47V_49E_50I_52G_53A_54D_55F_67L_, Q9UKT9]
5. FFCEICGADFTQKGNLLRHIKL [46F_47F_49E_50I_52G_53A_54D_55F_67L_, Q9UKT9]
6. FYCEICGADFTQKGNLLRHIKL [46F_47Y_49E_50I_52G_53A_54D_55F_67L_, Q9UKT9]
7. FVCEICGAMFTQKGNLLRHIKL [46F_47V_49E_50I_52G_53A_54M_55F_67L_, Q9UKT9]

Given back:
1. -2.68
2. -1.05
3. 3.4
4. -1.49
5. 0.436
6. 1.04
7. 0.202

Give me log2 fold change of degron read counts for each of these sequences, listed below.
1. FKCEQCGAPFTQKGNLLRHIKL [46F_47K_49E_50Q_52G_53A_54P_55F_67L_, Q9UKT9]
2. FHCPVCGATFTQKGNLLRHIKL [46F_47H_49P_50V_52G_53A_54T_55F_67L_, Q9UKT9]
3. FDCNVCGAMFTQKGNLLRHIKL [46F_47D_49N_50V_52G_53A_54M_55F_67L_, Q9UKT9]

Given back:
[-1.28, 1.14, -2.41]

Asked: Suppose we examine the sequence FRCEICGRIFTQKGNLLRHIKL [46F_47R_49E_50I_52G_53R_54I_55F_67L_, Q9UKT9] ; what log2 fold change of degron read counts value has been reported?
Given back: -2.12
